- PROTOCOL TEXT: Cell cytotoxicity CC50
- Format: cell-based
- PARTICULARS: human, Hep-G2 cells; mean of at least two experiments unless (n = 1)
For each entry below, report its CC50 value.

Sample records with CC50:
COMPOUND	CC50
O=C(N[C@H]1N=C(c2ccccc2)c2cccc(F)c2NC1=O)c1c(-c2cnn(C3CCOCC3)c2)nn2cccnc12	> 25 µM
CCn1cc(-c2nn3cccnc3c2C(=O)N[C@H]2N=C(c3ccccc3)c3cccc(F)c3NC2=O)cn1	> 25 µM
CC(O)c1ccc(-c2nn3cccnc3c2C(=O)N[C@H]2N=C(c3ccccc3)c3ccccc3NC2=O)c(F)c1 (some centres unmarked) [Example 16]	> 25 µM
O=C(N[C@H]1N=C(c2ccccc2)c2ccccc2NC1=O)c1c(-c2ccc(O)cc2F)nn2cccnc12	> 25 µM
O=C(N[C@H]1N=C(c2ccccc2)c2cccc(F)c2NC1=O)c1c(-c2ccc(CO)cc2F)nn2cccnc12	> 25 µM

Hello, I would appreciate it if you could give CC50 for each entry below.
1. CC(C)(O)Cc1ccc(-c2nn3cccnc3c2C(=O)N[C@H]2N=C(c3ccccc3)c3ccccc3NC2=O)c(F)c1
2. O=C(N[C@H]1N=C(c2ccccc2)c2cccc(F)c2NC1=O)c1c(-c2ccc(O)cc2F)nn2cccnc12
3. NC(=O)c1ccc(-c2nn3cccnc3c2C(=O)N[C@H]2N=C(c3ccccc3)c3cccc(F)c3NC2=O)c(F)c1

*A*
1: > 25 µM; 2: > 25 µM; 3: > 25 µM

###

- PROTOCOL TEXT: In vivo pharmacokinetics in rats (IV and PO)
- Parameters: species or system Male rats [Sprague Dawley (SD)]
- PARTICULARS: Sprague Dawley, plasma; male SD rat, study IV 1 mg/kg, PO 10 mg/kg; route not given
- Description: The pharmacokinetics of compounds were studied in vivo in rats at doses of 1 mg/kg (IV) and 10 mg/kg (PO). Male rats [Sprague Dawley (SD)] surgically prepared with a jugular vein cannula were treated with experimental compounds via intravenous administration (IV; n=3; 1 mg/kg) or oral administration (PO; n=3; 10 mg/kg). […] PK parameters were calculated from the resulting data.
So I've got a bunch of compounds here, and I need their Cmax values.
A complete answer gives the number followed by the unit.

Record excerpt, results attached:
STRUCTURE SMILES	Cmax
O=C(N[C@H]1N=C(c2ccccc2)c2cccc(F)c2NC1=O)c1c(-c2ccc(CO)cc2F)nn2cccnc12	788 ng/mL
CC(C)n1cc(-c2nn3cccnc3c2C(=O)N[C@H]2N=C(c3ccccc3)c3cccc(F)c3NC2=O)cn1	4790 ng/mL

Now take the following compound into account.
*Q* Fill blank: measured Cmax of the compound "CS(=O)(=O)c1ccc(-c2nn3cccnc3c2C(=O)N[C@H]2N=C(c3ccccc3)c3cccc(F)c3NC2=O)c(F)c1" is ____.
*A* 2340 ng/mL

###

Provide the recorded EC50 for the entries that follow.
- System: RSV A2
- PROTOCOL TEXT: RSV plaque reduction assay in Hep-G2 cells
- Type: cell-based, respiratory syncytial virus (RSV)
- PARTICULARS: Hep-G2 cells, RSV A2, 2 days; mean of at least two experiments; read-out: RSV A2 Plaque EC50
Where a name gives a salt, the structure may show the parent alone.

Record excerpt, results attached:
COMPOUND	EC50
CC(O)c1ccc(-c2nn3cccnc3c2C(=O)N[C@H]2N=C(c3ccccc3)c3cccc(F)c3NC2=O)c(F)c1 (single isomer, unassigned)	7.8 nM
CC(O)c1ccc(-c2nn3cccnc3c2C(=O)N[C@H]2N=C(c3ccccc3)c3ccccc3NC2=O)c(F)c1 (single isomer, unassigned)	11 nM

From here, focus on the item given below.
*Q* # query: EC50 of entry NCC(=O)OCc1ccc(-c2nn3cccnc3c2C(=O)N[C@H]2N=C(c3ccccc3)c3ccccc3NC2=O)c(F)c1 [Example 29, hydrochloride]
*A* 49 nM

###

- PROTOCOL TEXT: Hepatocyte stability, human
- Type: in vitro ADME
- PARTICULARS: cryopreserved pooled hepatocytes, 3 μM compound, 60 min, read-out: Liver Hepatocyte Stability t1/2
- Experimental: Compounds were subjected to the following assays to investigate liver microsomal stability and hepatocyte stability. Cryopreserved pooled hepatocytes were purchased from a reputable commercial supplier and stored in liquid nitrogen prior to use. […] Following protein precipitation, the sample supernatants were combined in cassettes of up to 4 compounds and analysed using generic LC-MS/MS conditions. […] Subsequently, half-life (t1/2) and intrinsic clearance (CLint) were calculated.
MEASURED METRIC: half-life at 3 μM (h)
Numbers only, in h.

// below: answered molecules
STRUCTURE SMILES	half-life at 3 μM / h
CS(=O)(=O)c1ccc(-c2nn3cccnc3c2C(=O)N[C@H]2N=C(c3ccccc3)c3cccc(F)c3NC2=O)c(F)c1	6.28
O=C(N[C@H]1N=C(c2ccccc2)c2cccc(F)c2NC1=O)c1c(-c2ccc(CO)cc2F)nn2cccnc12	5.55

Continue with the next molecule.
*Q* Please give the measured half-life at 3 μM for this molecule: "CC(C)n1cc(-c2nn3cccnc3c2C(=O)N[C@H]2N=C(c3ccccc3)c3cccc(F)c3NC2=O)cn1"
*A* 3.78

###

- Test system: Hep-G2 cells
- PROTOCOL TEXT: Cell cytotoxicity CC50
- Format: cell-based
- PARTICULARS: mean of at least two experiments unless (n = 1)
Structures can show the parent of a compound that is named as a salt.
Assignment: determine reported CC50 for the given compounds.

In the examples that follow, each entry is paired with its recorded CC50.
COMPOUND	STUDY TARGET	CC50
CC(O)c1ccc(-c2nn3cccnc3c2C(=O)N[C@H]2N=C(c3ccccc3)c3cccc(F)c3NC2=O)c(F)c1 (single isomer, unassigned) [Example 17-2]	Hep-G2 cells	> 2.5 µM
CC(O)c1ccc(-c2nn3cccnc3c2C(=O)N[C@H]2N=C(c3ccccc3)c3ccccc3NC2=O)c(F)c1 (single isomer, unassigned) [Example 16-2]	Hep-G2 cells	> 2.5 µM

Next, consider the following compound.
*Q* Find CC50 (Hep-G2 cells) for the entry NCC(=O)OCc1ccc(-c2nn3cccnc3c2C(=O)N[C@H]2N=C(c3ccccc3)c3ccccc3NC2=O)c(F)c1 [Example 29, hydrochloride]
*A* > 25 µM
